method.notes: Genotoxicity in Salmonella typhimurium TA1535 harboring pSK1002 assessed as survival at 0.002 mg/ml in presence of Sprague-Dawley rat liver S9 fraction after by SOS/umu assay relative to control
Assay type: toxicity, organism-based
condition.description: salmonella enterica subsp. enterica serovar typhimurium, read-out: Survival
reported.endpoint: viability at 0.002 mg/ml (%)

{"columns": ["molecule", "reported.endpoint", "readout.number"],
 "data": [
  ["COc1ccccc1C1=CCN(CCC(O)c2ccc(F)cc2)CC1 (centres undefined)", "viability at 0.002 mg/ml", 87.2],
  ["COc1ccccc1C1=CCN(CCC(O)c2ccc(F)c3ccccc23)CC1 (centres undefined)", "viability at 0.002 mg/ml", 101],
  ["OC(CCN1CCN(c2ccccc2C(F)(F)F)CC1)c1ccc(F)c2ccccc12 (stereo in doubt; 55)", "viability at 0.002 mg/ml", 120],
  ["OC(CCN1CCN(C(c2ccccc2)c2ccccc2)CC1)c1ccc(Cl)cc1 (centres undefined)", "viability at 0.002 mg/ml", 88.9],
  ["Nc1ccc(N2CCC(NCCC(O)c3ccc(F)c4ccccc34)CC2)c(C(F)(F)F)c1 (centres undefined)", "viability at 0.002 mg/ml", 116],
  ["N#Cc1ccc(N2CCC(NCCC(O)c3ccc(F)c4ccccc34)CC2)c(C(F)(F)F)c1 (stereo in doubt; 72)", "viability at 0.002 mg/ml", 136],
  ["O=[N+]([O-])c1ccc(N2CCN(CCC(O)c3ccc(F)c4ccccc34)CC2)cc1 (centres undefined)", "viability at 0.002 mg/ml", 107],
  ["OC(CCN1CC=C(c2ccc(F)cc2)CC1)c1ccc2c(c1)OCO2 (centres undefined)", "viability at 0.002 mg/ml", 108],
  ["OC(CCN1CCN(C(c2ccccc2)c2ccccc2)CC1)c1ccc(F)c(Cl)c1 (centres undefined)", "viability at 0.002 mg/ml", 73.1]
]}

---

method.notes: Genotoxicity in Salmonella typhimurium TA1535 harboring pSK1002 assessed as umu gene induction at 0.063 mg/ml in presence of Sprague-Dawley rat liver S9 fraction after by SOS/umu assay relative to control
Type: toxicity, organism-based
condition.description: salmonella enterica subsp. enterica serovar typhimurium, read-out: FC
The class of a record is decided solely by its measured fold induction at 0.063 mg/ml; consult Low: < 0.5; Mid: ≥ 0.5 and < 0.9; High: ≥ 0.9

{"columns": ["compound", "assigned.class"],
 "data": [
  ["Oc1ccc(C(O)CCN2CC=C(c3ccc(F)cc3)CC2)cc1 (stereo not drawn)", "Low"],
  ["N#Cc1ccc(N2CCC(NCCC(O)c3ccc(F)c4ccccc34)CC2)c(C(F)(F)F)c1 (stereo in doubt; 72)", "Low"],
  ["N#Cc1ccc(N2CCC(NCCC(O)c3ccc(F)c4ccccc34)CC2)c(Cl)c1 (stereo not drawn)", "Low"],
  ["OC(CCN1CCN(C(c2ccccc2)c2ccccc2)CC1)c1ccc(F)c2ccccc12 (stereo not drawn)", "High"],
  ["OC(CCN1CCN(c2ccccc2C(F)(F)F)CC1)c1ccc(F)c2ccccc12 (stereo in doubt; 55)", "Mid"],
  ["N#Cc1ccc(C(O)CCN2CC=C(c3ccc(F)cc3)CC2)cc1 (stereo not drawn)", "High"],
  ["Nc1ccc(N2CCC(NCCC(O)c3ccc(F)c4ccccc34)CC2)c(C(F)(F)F)c1 (stereo not drawn)", "Low"],
  ["COc1ccccc1C1=CCN(CCC(O)c2ccc(F)c3ccccc23)CC1 (stereo not drawn)", "Mid"],
  ["N#Cc1ccc(N2CCC(NCCC(O)c3ccc(F)c4ccccc34)CC2)c(Br)c1 (stereo not drawn)", "Mid"],
  ["OC(CCN1CCN(C(c2ccccc2)c2ccccc2)CC1)c1ccc(F)c(F)c1 (stereo not drawn)", "Mid"],
  ["O=[N+]([O-])c1ccccc1N1CCN(CCC(O)c2ccc(F)c3ccccc23)CC1 (stereo not drawn)", "High"],
  ["OC(CCN1CCN(c2ccccc2C(F)(F)F)CC1)c1ccc(F)cc1 (stereo not drawn)", "Mid"],
  ["COc1ccccc1N1CCN(CCC(O)c2ccc(F)c3ccccc23)CC1 (stereo not drawn)", "Mid"]
]}
